Measured values drawn from PubChem BioAssay AID1845216 for this set.

test system: SW 982 tumor spheroid viability; assay: Anticancer human tumor SW 982 cell line growth inhibition; conditions: second compound 10 µM; first compound 0.0316 µM; hits give low values; spheroids with HUVEC and MSC;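 note: spheroids exposed to compound for 7 days before readout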
observation_type: viability, T/C (%)
Unit % implied. Number only.

Please review the entries below; each comes with its answer.
CC(C)n1c(=O)n(C)c2cnc3cc(F)c(-c4ccc(OCCCN5CCCCC5)nc4)cc3c21 + Cn1nnc2c(C(N)=O)ncn2c1=O = 75.2
[2H]c1nc(C)nc([2H])c1-c1cc(NC[C@@H](C)c2cccc3c(C(=O)NC)ccnc23)ncn1 + Cn1nnc2c(C(N)=O)ncn2c1=O = 83.8

Exercise: Form field: viability, T/C recorded for CC1COCCN1c1cc(-c2ccnn2C)c2ccnc(-c3ccn[nH]3)c2n1 (stereo unspecified) + Cn1nnc2c(C(N)=O)ncn2c1=O with SW 982 tumor spheroid viability (enter value)
Solution: 21.1

Exercise: Now consider Cc1cc(C)c(CNC(=O)c2cc(-c3ccc(CN4CCOCC4)cc3)cc3c2cnn3C2CCCC2)c(=O)[nH]1 + Cn1nnc2c(C(N)=O)ncn2c1=O and answer again.
Solution: 86.7

Exercise: Would you kindly repeat that for COc1cc(C)[nH]c(=O)c1CN1CCc2c(Cl)cc(C(OC)C3COC3)c(Cl)c2C1=O (stereo unspecified) + Cn1nnc2c(C(N)=O)ncn2c1=O ?
Solution: 81.8

Exercise: Query COc1ccc([C@@H](O)c2cc(-c3ncnc4cc(N5CCOCC5)ccc34)c(F)cc2Cl)nn1 + Cn1nnc2c(C(N)=O)ncn2c1=O next
Solution: 76.9
